B1: KAT8 regulatory NSL complex subunit 2, residues 28 to 91; numbered along this chain, Q9H9L4 (parent)
chain: CAFTHRPCSHPRLEGQEFCIKHILEDKNAPFKQCSYISTKNGKRCPNAAPKPEKKDGVSFCAEH

- Variants of: B1
- assay remarks: abundance fitness (aPCA) (normalised: wild type 0, dead -1); higher = more abundant; growth selection in yeast, the domain comes from the species named
- recorded conditions: Homo sapiens
Outcome: rule met for abundance fitness of at least -0.1; rule not met for anything lower.

Prompt: Hi team, for `G15Y` , is the recorded abundance fitness at or above -0.1?
Completion: rule not met

Prompt: Form field: abundance fitness at least -0.1? Entry: `C8P`
Completion: rule not met

Prompt: hey, is abundance fitness for this one >= -0.1? `P7G`
Completion: rule met

Prompt: Reported abundance fitness at or above -0.1? `R12Q`
Completion: rule not met

Prompt: Identify whether the reported abundance fitness of the following variant is -0.1 or greater: `P46K`
Completion: rule met

Prompt: # bool: abundance fitness of `I37M` >= -0.1
Completion: rule met

Prompt: Is abundance fitness at least -0.1? Consider `G15Q`
Completion: rule not met

Prompt: Please indicate if the recorded abundance fitness for `G42N` meets or exceeds -0.1.
Completion: rule not met
